System: Leishmania donovani
assay_explanation: Leishmania intramacrophage assay
Assay type: functional, organism-based
Design: scale not given: in the data most compounds retested in dose-response had high values
setup_conditions: 30.3 µM; […]
Screen size: about 69,000 compounds; about 1,000 (1.4%) showed an effect of 50% or more. This excerpt belongs to a sample that is enriched for strong results.

compound	experimental_system	Percent Effect
Cc1ccc(-c2cccc(N3CCC(NC4CCOCC4)CC3)c2)cc1	Leishmania donovani	88.48%
CC(C)N1CC[C@@H]2[C@H](COCC3CC3)CN(C)C(=O)[C@@H]2CC1.O=C(O)C(F)(F)F	Leishmania donovani	9.802%
CN(C)c1nc(N)nc(CN2CCCC2c2ccsc2)n1 (stereo not drawn)	Leishmania donovani	83.34%
Cc1cccc(C2CCCN2Cc2nc(N)nc(N(C)C)n2)c1C (stereo not drawn)	Leishmania donovani	37.96%
CN(C)c1nc(N)nc(CN2CCCC(c3ccccc3)CC2)n1 (stereo not drawn)	Leishmania donovani	6.795%
O=C(Cc1cccc(O)c1)NC1CCN(c2cccc(Cl)c2)C1 (stereo not drawn)	Leishmania donovani	5.178%
CNS(=O)(=O)CC(=O)NC(C)Cc1ccc(-c2ccccc2)cc1 (stereo not drawn)	Leishmania donovani	32.54%
Cc1ccc2c(n1)N(CC1CC1)CCN(Cc1cnn(C)c1)C2	Leishmania donovani	26.83%
Clc1ccccc1C1(c2ccnc(C3CC3)n2)CCNCC1	Leishmania donovani	94.79%
COc1ccc(CN2CCCC2c2cccc(F)c2)c(OC)c1OC (stereo not drawn)	Leishmania donovani	53.41%
O=C(c1cccnc1)N1CCc2onc(CN3CCCC3)c2C1	Leishmania donovani	14.82%
Cc1nc(-c2cccc(N3CCC(NC4CCOCC4)CC3)c2)cs1	Leishmania donovani	22.64%
Clc1cccc(-c2cccc(N3CCC(NC4CCOCC4)CC3)c2)c1	Leishmania donovani	97.72%
CN(C)c1nc(N)nc(CN2CCCC2c2cccs2)n1 (stereo not drawn)	Leishmania donovani	87.57%
O=c1cnc2ccccc2n1CCCn1cccn1	Leishmania donovani	-23.4%
Cc1nc(C2CCCC2)sc1C(N)=O	Leishmania donovani	-15.57%
Clc1ccccc1C1(c2ccnc(C3CCCC3)n2)CCNCC1	Leishmania donovani	99.4%
COc1cc(CN2CCCC2c2cccc(F)c2)cc(OC)c1OC (stereo not drawn)	Leishmania donovani	4.07%
Cc1nc(Nc2nnc(C)s2)cc(C2CCCN2c2ccncn2)n1 (stereo not drawn)	Leishmania donovani	-2.613%
CCNC(=O)N(Cc1ccoc1)C1CCCCC1	Leishmania donovani	-8.85%
O=C(C1CCOCC1)N1C[C@H]2CCC[C@@]2(COCc2ccccn2)C1	Leishmania donovani	39.51%
Cl.Clc1ccccc1CN1CCc2nc(C3CCNCC3)ncc2C1	Leishmania donovani	3.749%
O=C(NCc1cccnc1)[C@@H]1C[C@H]2[C@H](CCN2c2ncccn2)O1.O=C(O)C(F)(F)F.O=C(O)C(F)(F)F	Leishmania donovani	4.628%

----------
Documented Percent Effect across a set of compounds
Tested on: Leishmania donovani
assay_explanation: Leishmania intramacrophage assay
Format: functional, organism-based
Set-up: scale not given: in the data most compounds retested in dose-response had high values
setup_conditions: 30.3 µM; […]
About 1,000 (1.4%) of roughly 69,000 compounds showed an effect of 50% or more. What follows is part of a selection rich in strong results, with near analogues and random picks from the rest.
property_measured: Percent Effect

smiles	property_measured	value
COc1ccc2nnc(CCCC(=O)NCc3ccccc3OC)n2n1	Percent Effect	-10.21%
Cc1c(C)n(-c2ccccn2)c2nc3c(c(N)c12)CCCCC3	Percent Effect	70.72%
COc1ccc2nnc(CCCC(=O)NCc3ccccc3)n2n1	Percent Effect	-8.358%
Cc1ccc(C(=O)O)cc1CNC(=O)CN1CC[C@](C)(O)C(C)(C)C1	Percent Effect	62.04%
CS(=O)(=O)NCc1noc2c1CN(C(=O)C1CCC1)CC2	Percent Effect	11.5%
CC1(C)CN(CC(=O)NCc2ccccc2F)C[C@]1(C)O	Percent Effect	15.59%

----------
Test system: Leishmania donovani
assay_explanation: Leishmania intramacrophage assay
Type: functional, organism-based
Design: scale not given: in the data most compounds retested in dose-response had high values
setup_conditions: 30 µM
Hit rate of the full screen: of about 69,000 compounds, about 1,000 (1.4%) showed an effect of 50% or more. The sample as a whole holds a higher share of strong results than the screen did.

molecule	experimental_system	Percent Effect, %
Cc1nc(CN(C)C2CCN(CCc3ccc4c(c3)CCO4)C2)no1 (stereo not given)	Leishmania donovani	14.02
CN(C)C(=O)C1CCN(Cn2nc(-c3ccc(F)cc3)oc2=O)CC1	Leishmania donovani	-5.064
CCN(CC)C(=O)Cn1ccc2cc(NC(=O)NC3CC3)ccc21	Leishmania donovani	18.91
CC(C)c1nc(C2CCCN(C(=O)CCn3cncn3)C2)no1 (stereo not given)	Leishmania donovani	13.68
CC1COCCN1Cc1nc(-c2ccc(F)cc2)no1 (stereo not given)	Leishmania donovani	12.83
OC(COCc1ccccc1Cl)CN1CCC(c2ccn[nH]2)CC1 (stereo not given)	Leishmania donovani	17.67
COc1ccc(C(=O)NCCCNc2ccc(C(F)(F)F)cn2)cc1	Leishmania donovani	37.73
CC(NC(=O)CCCc1nc(C(C)(C)C)no1)c1ccccn1 (stereo not given)	Leishmania donovani	-2.756
O=C(Nc1ccccc1F)C1=NN(c2ccccc2)C(=O)CN1	Leishmania donovani	-15.12
Cc1ncccc1CNCC1CCN(CCO)CC1	Leishmania donovani	29.11
COc1cccc(CNCC2CCN(CC(C)O)CC2)c1OC (stereo not given)	Leishmania donovani	-4.893
Cc1cc(C)cc(CNC(c2ccccc2)c2nccn2C)c1 (stereo not given)	Leishmania donovani	35.61
Clc1ccccc1CCN1CCN(c2ccc3nncn3n2)CC1	Leishmania donovani	7.685
Cc1noc(C2CCCN(C(=O)CCCNc3ncccn3)C2)n1 (stereo not given)	Leishmania donovani	-32
CN1CCOC(CNCc2csc(C3CCCCC3)n2)C1 (stereo not given)	Leishmania donovani	56.43
Cc1nc(CN(C)C2CCCN(Cc3noc(C4CC4)n3)C2)oc1C (stereo not given)	Leishmania donovani	-8.721
Cc1nc(CN2CCOC(Cn3cccn3)C2)nc2ccccc12 (stereo not given)	Leishmania donovani	18.44
Cc1ccc(CNC(=O)CN2CCOC(Cn3cncn3)C2)s1 (stereo not given)	Leishmania donovani	21.75
CCOC(=O)c1sc2ccsc2c1CNC(=O)COC	Leishmania donovani	13.66
Cc1nccn1C1CCCN(C(=O)c2cccc(Cn3ccnc3)c2)C1 (stereo not given)	Leishmania donovani	43.46
O=C(NCCCNc1ccc(C(F)(F)F)cn1)c1ccc(F)cc1Br	Leishmania donovani	45.44
CC(O)CN1CCC(CNCc2ccccc2F)CC1 (stereo not given)	Leishmania donovani	14.91
CCNC(=O)CN1CCN(Cc2nc3c(F)cccc3n2CC)CC1	Leishmania donovani	25.75
CCn1ncc2c1CCCC2NCc1cc(OC)cc(OC)c1 (stereo not given)	Leishmania donovani	1.972
Cc1nc(C)n(CC2CCCN(CCc3ccccc3)C2)n1 (stereo not given)	Leishmania donovani	25.36

----------
Tested on: Leishmania donovani
assay_explanation: Leishmania intramacrophage assay
Format: functional, organism-based
Parameters: scale not given: in the data most compounds retested in dose-response had high values
setup_conditions: 30.3 µM; […]
The campaign covered roughly 69,000 compounds. About 1,000 (1.4%) showed an effect of 50% or more. This excerpt belongs to a sample that is enriched for strong results.
Classification scheme (Percent Effect): group A = under 20%, group B = from 20% up to 50%, group C = 50% and over

compound	group_label
COCC(=O)N1Cc2nccn2CC(CN(C)Cc2cccnc2)C1 (centres undefined)	group B
CN(Cc1csc2ccccc12)C(=O)NC1CCS(=O)(=O)C1 (centres undefined)	group A
COc1ccc(C[C@@H]2CC[C@H](CN(C)C3CCN(C)CC3)O2)cc1	group A
CC(=O)C(Cc1ccccc1)NC(=O)CSc1nccn1C1CC1 (centres undefined)	group A
COCc1cc(N2CCOC(c3ccc(Cl)c(Cl)c3)C2)ncn1 (centres undefined)	group C
Cc1ccc2c(c1)C(=O)NCC1(CCN(C(=O)c3cc(C)no3)CC1)O2	group C
CC(C)c1nc(CN(C)C(=O)[C@H](N)Cc2ccc(Cl)cc2)cs1	group C
COc1ccc(C2=Nn3c(CN)nnc3-c3ccccc3C2)cc1	group B
CN1CCC(N(C)C[C@H]2CC[C@@H](Cc3cccc(O)c3)O2)CC1	group C
COCc1cc(N2CCOC(c3ccc(F)cc3)C2)ncn1 (centres undefined)	group A
COc1ccc(OCCN(C)C(=O)c2ccc(OC)cc2O)cc1	group C
Cc1ccc2c(c1)C(=O)NCC1(CCN(C(=O)c3ccccn3)CC1)O2	group B
CN(Cc1cccnc1)CC1CN(C(N)=O)Cc2nccn2C1 (centres undefined)	group C
CC(C)CN1CCC(NC(=O)N(C)Cc2csc3ccccc23)CC1	group B
Cc1cc(C)n(-c2nc(NCCCO)c3c4c(sc3n2)CCCC4)n1	group C
COc1ccc(C2=Nn3c(CCCN)nnc3-c3ccccc3C2)cc1	group B
Cc1cc(N2CCc3c(nc(C(C)C)n3C)C2)nc(N)n1	group A
CNC(=O)C1CN(C)CCN(C(=O)CCn2nnc3ccccc32)C1 (centres undefined)	group A
N#Cc1c(F)cccc1N1CCCC(C(=O)Nc2nncs2)C1 (centres undefined)	group B
CN(Cc1ccc(F)c(F)c1)Cc1cc2c(cc1Br)OCCO2	group A
COCc1cc(N2CCOC(c3ccc(Cl)cc3)C2)ncn1 (centres undefined)	group A
CCOCCN1CCN(CC(O)c2ccc(C)c(C)c2)CC1 (centres undefined)	group B
CCS(=O)(=O)N1CCC(NCC2CNc3cc(C)nn3C2)CC1 (centres undefined)	group A
